Where these numbers come from: ChEMBL document CHEMBL4177761

test: Plasma clearance in monkey at 1 mg/kg, iv by LC-MS method; assay type: ADME, organism-based, Macaca mulatta; settings: rhesus monkey

cpd.smiles: COC(=O)N[C@H](C(=O)N1CCC[C@H]1c1nc2cc([C@H]3CC[C@H](c4cc5nc([C@@H]6CCCN6C(=O)[C@@H](NC(=O)OC)[C@@H](C)OC)[nH]c5cc4F)N3c3cc(F)c(N4CCC(c5ccc(F)cc5)CC4)c(F)c3)c(F)cc2[nH]1)[C@@H](C)OC
clearance [mL/min/kg]: 2.5

---

experiment: Cmax in mouse at 3 mg/kg, po by LC-MS method; assay type: ADME, organism-based; design: dose 3 mg/kg, route oral; details: in vivo
Attribute: Cmax

cpd.smiles: COC(=O)N[C@H](C(=O)N1CCC[C@H]1c1nc2cc(F)c([C@H]3CC[C@H](c4cc5[nH]c([C@@H]6CCCN6C(=O)[C@@H](NC(=O)OC)C(C)C)nc5cc4F)N3c3cc(F)c(N4CCC(c5ccc(F)cc5)CC4)c(F)c3)cc2[nH]1)C(C)C
Cmax (nM): 1710
--
cpd.smiles: COC(=O)N[C@H](C(=O)N1CCC[C@H]1c1nc2cc([C@H]3CC[C@H](c4cc5nc([C@@H]6CCCN6C(=O)[C@@H](NC(=O)OC)[C@@H](C)OC)[nH]c5cc4F)N3c3cc(F)c(N4CCC(c5ccc(F)cc5)CC4)c(F)c3)c(F)cc2[nH]1)[C@@H](C)OC
Cmax (nM): 1140
--
cpd.smiles: COC(=O)N[C@H](C(=O)N1CCC[C@H]1C(=O)Nc1ccc([C@@H]2CC[C@@H](c3ccc(NC(=O)[C@@H]4CCCN4C(=O)[C@@H](NC(=O)OC)C(C)C)cc3)N2c2ccc(C(C)(C)C)cc2)cc1)C(C)C
Cmax (nM): 636
--
cpd.smiles: COC(=O)N[C@H](C(=O)N1CCC[C@H]1c1nc2cc([C@H]3CC[C@H](c4cc5nc([C@@H]6CCCN6C(=O)[C@@H](NC(=O)OC)C(C)C)[nH]c5cc4F)N3c3cc(F)c(N4CCC(c5ccccc5)CC4)c(F)c3)c(F)cc2[nH]1)C(C)C
Cmax (nM): 754

---

experiment: Drug level in dog at 2.5 mg/kg, po at 24 hrs by LC-MS method; assay type: ADME, organism-based, Canis lupus familiaris; details: in vivo, read-out: Drug uptake

cpd.smiles: COC(=O)N[C@H](C(=O)N1CCC[C@H]1c1nc2cc([C@H]3CC[C@H](c4cc5nc([C@@H]6CCCN6C(=O)[C@@H](NC(=O)OC)[C@@H](C)OC)[nH]c5cc4F)N3c3cc(F)c(N4CCC(c5ccc(F)cc5)CC4)c(F)c3)c(F)cc2[nH]1)[C@@H](C)OC
concentration at 24 h (nM): 82

---

target: Nonstructural protein 5A (Hepatitis C virus) (UniProt Q5L478); experiment: Inhibition of NS5A Q30R mutant in HuH7 cell infected HCV genotype 1a H77 assessed as decrease in viral replication after 4 days by luciferase reporter gene assay relative to wild type protein; settings: Hepatitis C virus (isolate H77)
Sequence (Q5L478 as listed by the source): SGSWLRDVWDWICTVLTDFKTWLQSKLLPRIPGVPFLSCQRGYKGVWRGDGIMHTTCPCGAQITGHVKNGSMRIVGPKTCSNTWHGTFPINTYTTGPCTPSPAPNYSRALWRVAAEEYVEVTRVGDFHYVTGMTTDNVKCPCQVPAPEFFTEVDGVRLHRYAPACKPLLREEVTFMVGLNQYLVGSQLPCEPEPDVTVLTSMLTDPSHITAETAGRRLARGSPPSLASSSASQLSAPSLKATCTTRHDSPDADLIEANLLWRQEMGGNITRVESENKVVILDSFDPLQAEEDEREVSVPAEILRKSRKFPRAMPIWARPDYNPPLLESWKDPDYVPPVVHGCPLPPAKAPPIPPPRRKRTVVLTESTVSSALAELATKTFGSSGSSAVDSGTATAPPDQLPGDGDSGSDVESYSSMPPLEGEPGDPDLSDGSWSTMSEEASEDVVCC
Attribute: fold change (FC)

cpd.smiles: COC(=O)N[C@H](C(=O)N1CCC[C@H]1c1nc2ccc([C@H]3CC[C@H](c4ccc5nc([C@@H]6CCCN6C(=O)[C@@H](NC(=O)OC)C(C)C)[nH]c5c4)N3c3cc(F)c(N4CCC(c5ccc(F)cc5)CC4)c(F)c3)cc2[nH]1)C(C)C
comparison.symbol: =
fold change (FC): 3
//
cpd.smiles: COC(=O)N[C@H](C(=O)N1CCC[C@H]1c1nc2ccc([C@H]3CC[C@H](c4ccc5nc([C@@H]6CCCN6C(=O)[C@@H](NC(=O)OC)C(C)C)[nH]c5c4)N3c3ccc(Cl)cc3)cc2[nH]1)C(C)C
comparison.symbol: =
fold change (FC): 44
//
cpd.smiles: COC(=O)N[C@H](C(=O)N1CCC[C@H]1c1nc2cc(F)c([C@H]3CC[C@H](c4cc5[nH]c([C@@H]6CCCN6C(=O)[C@@H](NC(=O)OC)[C@@H](C)OC)nc5cc4F)N3c3cc(F)c(N4CCC(c5ccccc5)CC4)c(F)c3)cc2[nH]1)[C@@H](C)OC
comparison.symbol: =
fold change (FC): 1
//
cpd.smiles: COC(=O)N[C@H](C(=O)N1CCC[C@H]1c1nc2ccc([C@H]3CC[C@H](c4ccc5nc([C@@H]6CCCN6C(=O)[C@@H](NC(=O)OC)C(C)C)[nH]c5c4)N3c3ccc(-c4ccccc4)cc3)cc2[nH]1)C(C)C
comparison.symbol: =
fold change (FC): 10
//
cpd.smiles: COC(=O)N[C@H](C(=O)N1CCC[C@H]1c1nc2ccc([C@H]3CC[C@H](c4ccc5nc([C@@H]6CCCN6C(=O)[C@@H](NC(=O)OC)C(C)C)[nH]c5c4)N3c3ccc(C4CCCCC4)cc3)cc2[nH]1)C(C)C
comparison.symbol: >
fold change (FC): 30
//
cpd.smiles: COC(=O)N[C@H](C(=O)N1CCC[C@H]1c1nc2cc([C@H]3CC[C@H](c4cc5nc([C@@H]6CCCN6C(=O)[C@@H](NC(=O)OC)[C@@H](C)OC)[nH]c5cc4F)N3c3cc(F)c(N4CCC(c5ccc(F)cc5)CC4)c(F)c3)c(F)cc2[nH]1)[C@@H](C)OC
comparison.symbol: =
fold change (FC): 1.7
//
cpd.smiles: COC(=O)N[C@H](C(=O)N1CCC[C@H]1c1nc2cc([C@H]3CC[C@H](c4ccc5[nH]c([C@@H]6CCCN6C(=O)[C@@H](NC(=O)OC)C(C)C)nc5c4)N3c3cc(F)c(N4CCCCC4)c(F)c3)ccc2[nH]1)C(C)C
comparison.symbol: =
fold change (FC): 13
//
cpd.smiles: COC(=O)N[C@H](C(=O)N1CCC[C@H]1c1nc2cc(F)c([C@H]3CC[C@H](c4cc5[nH]c([C@@H]6CCCN6C(=O)[C@@H](NC(=O)OC)C(C)C)nc5cc4F)N3c3cc(F)c(N4CCC(c5ccccc5)CC4)c(F)c3)cc2[nH]1)C(C)C
comparison.symbol: =
fold change (FC): 2
//
cpd.smiles: COC(=O)N[C@H](C(=O)N1CCC[C@H]1C(=O)Nc1ccc([C@@H]2CC[C@@H](c3ccc(NC(=O)[C@@H]4CCCN4C(=O)[C@@H](NC(=O)OC)C(C)C)cc3)N2c2ccc(C(C)(C)C)cc2)cc1)C(C)C
comparison.symbol: =
fold change (FC): 800

---

Attribute: fold change (FC)
biological target: Nonstructural protein 5A (Hepatitis C virus) (UniProt Q5L478); assay: Inhibition of NS5A Q30R mutant in HuH7 cell infected HCV genotype 1a H77 assessed as decrease in viral replication after 4 days by luciferase reporter gene assay relative to wild type protein; settings: Hepatitis C virus (isolate H77)
observed.property: fold change (FC)

cpd.smiles: COC(=O)N[C@H](C(=O)N1CCC[C@H]1c1nc2ccc([C@H]3CC[C@H](c4ccc5nc([C@@H]6CCCN6C(=O)[C@@H](NC(=O)OC)C(C)C)[nH]c5c4)N3c3cc(F)c(N4CCC(c5ccccc5)CC4)c(F)c3)cc2[nH]1)C(C)C
observed.property: fold change (FC)
result: 7

cpd.smiles: COC(=O)N[C@H](C(=O)N1CCC[C@H]1c1nc2ccc([C@H]3CC[C@H](c4ccc5nc([C@@H]6CCCN6C(=O)[C@@H](NC(=O)OC)C(C)C)[nH]c5c4)N3c3ccc(C(C)(C)C)cc3)cc2[nH]1)C(C)C
observed.property: fold change (FC)
result: 14

---

experiment: Cmax in monkey at 2.5 mg/kg, po by LC-MS method; format: ADME, organism-based, Macaca mulatta; parameters: dose 2.5 mg/kg, route oral; conditions: rhesus monkey, in vivo

cpd.smiles: COC(=O)N[C@H](C(=O)N1CCC[C@H]1c1nc2cc([C@H]3CC[C@H](c4cc5nc([C@@H]6CCCN6C(=O)[C@@H](NC(=O)OC)[C@@H](C)OC)[nH]c5cc4F)N3c3cc(F)c(N4CCC(c5ccc(F)cc5)CC4)c(F)c3)c(F)cc2[nH]1)[C@@H](C)OC
output.unit: nM
Cmax: 260

---

test: AUC (0 to infinity) in mouse at 5 mg/kg, po by LC-MS method; format: ADME, organism-based; parameters: dose 5 mg/kg, route oral, time infinity; conditions: in vivo

cpd.smiles: COC(=O)N[C@H](C(=O)N1CCC[C@H]1c1nc2ccc([C@H]3CC[C@H](c4ccc5nc([C@@H]6CCCN6C(=O)[C@@H](NC(=O)OC)C(C)C)[nH]c5c4)N3c3ccc(C(C)(C)C)cc3)cc2[nH]1)C(C)C
output.unit: ng·h/mL
AUC(0-inf): 1390

---

assay: Tmax in dog at 2.5 mg/kg, po by LC-MS method; type: ADME, organism-based, Canis lupus familiaris; details: in vivo

cpd.smiles: COC(=O)N[C@H](C(=O)N1CCC[C@H]1c1nc2cc([C@H]3CC[C@H](c4cc5nc([C@@H]6CCCN6C(=O)[C@@H](NC(=O)OC)[C@@H](C)OC)[nH]c5cc4F)N3c3cc(F)c(N4CCC(c5ccc(F)cc5)CC4)c(F)c3)c(F)cc2[nH]1)[C@@H](C)OC
Tmax [h]: 3.67
